Tested on: C. difficile clinical isolates
Details: Clostridioides difficile, 24 h, C. difficile clinical isolate MT 5493; agar dilution
test.readout: MIC

Note MIC for the molecule shown: `CN[C@H](CC(C)C)C(=O)N[C@H]1C(=O)N[C@@H](CC(N)=O)C(=O)N[C@H]2C(=O)N[C@H]3C(=O)N[C@H](C(=O)N[C@H](C(=O)O)c4cc(O)cc(O)c4-c4cc3ccc4O)[C@H](O)c3ccc(c(Cl)c3)Oc3cc2cc(c3O[C@@H]2O[C@H](CO)[C@@H](O)[C@H](O)[C@H]2O[C@H]2C[C@](C)(N)[C@H](O)[C@H](C)O2)Oc2ccc(cc2Cl)[C@H]1O` 1 µg/mL

Return MIC for the following molecule: `O=c1[nH]c(NCc2ccc(Cl)c(Cl)c2)nc2ncn(CCN3CCOCC3)c12` 4 µg/mL

Give the measured MIC for `Cc1ncc([N+](=O)[O-])n1CCO` 2 µg/mL

Return MIC for the following molecule: `CCc1c(Cl)c(O)c(Cl)c(O)c1C(=O)O[C@H]1[C@H](O)[C@H](OC)[C@H](OC/C2=C\C=C\C[C@H](O)/C(C)=C/[C@H](CC)[C@@H](O[C@@H]3OC(C)(C)[C@@H](OC(=O)C(C)C)[C@H](O)[C@@H]3O)/C(C)=C/C(C)=C/C[C@@H]([C@@H](C)O)OC2=O)O[C@@H]1C` 1 µg/mL

====

System: C. difficile clinical isolates
Settings: Clostridioides difficile, 24 h, C. difficile clinical isolate MT 5342; agar dilution
test.readout: MIC (µg/mL)
Give just the number in µg/mL; leave the unit off.

Retrieve MIC measured for CN[C@H](CC(C)C)C(=O)N[C@H]1C(=O)N[C@@H](CC(N)=O)C(=O)N[C@H]2C(=O)N[C@H]3C(=O)N[C@H](C(=O)N[C@H](C(=O)O)c4cc(O)cc(O)c4-c4cc3ccc4O)[C@H](O)c3ccc(c(Cl)c3)Oc3cc2cc(c3O[C@@H]2O[C@H](CO)[C@@H](O)[C@H](O)[C@H]2O[C@H]2C[C@](C)(N)[C@H](O)[C@H](C)O2)Oc2ccc(cc2Cl)[C@H]1O [Vancomycin, vancomycin] and print it. 8

Identify MIC associated with the compound CCc1c(Cl)c(O)c(Cl)c(O)c1C(=O)O[C@H]1[C@H](O)[C@H](OC)[C@H](OC/C2=C\C=C\C[C@H](O)/C(C)=C/[C@H](CC)[C@@H](O[C@@H]3OC(C)(C)[C@@H](OC(=O)C(C)C)[C@H](O)[C@@H]3O)/C(C)=C/C(C)=C/C[C@@H]([C@@H](C)O)OC2=O)O[C@@H]1C [Fidaxomicin, fidaxomicin] 1

For the compound O=c1[nH]c(NCc2ccc(Cl)c(Cl)c2)nc2ncn(CCN3CCOCC3)c12 [Ibezapolstat] , report MIC. 4

Return MIC (reported value) for this compound: Cc1ncc([N+](=O)[O-])n1CCO [Metronidazole, metronidazole] 2

====

Tested on: C. difficile clinical isolates
Details: Clostridioides difficile, 24 h, C. difficile clinical isolate SH 1132; agar dilution
test.readout: MIC (µg/mL)
Respond numerically; units are µg/mL and should not be typed.

Indicate the recorded MIC value for this compound: `O=c1[nH]c(NCc2ccc(Cl)c(Cl)c2)nc2ncn(CCN3CCOCC3)c12` 8

Identify measured MIC associated with `CCc1c(Cl)c(O)c(Cl)c(O)c1C(=O)O[C@H]1[C@H](O)[C@H](OC)[C@H](OC/C2=C\C=C\C[C@H](O)/C(C)=C/[C@H](CC)[C@@H](O[C@@H]3OC(C)(C)[C@@H](OC(=O)C(C)C)[C@H](O)[C@@H]3O)/C(C)=C/C(C)=C/C[C@@H]([C@@H](C)O)OC2=O)O[C@@H]1C` 0.5

Tell me its MIC given `Cc1ncc([N+](=O)[O-])n1CCO` as the entry. 1

For the compound `CN[C@H](CC(C)C)C(=O)N[C@H]1C(=O)N[C@@H](CC(N)=O)C(=O)N[C@H]2C(=O)N[C@H]3C(=O)N[C@H](C(=O)N[C@H](C(=O)O)c4cc(O)cc(O)c4-c4cc3ccc4O)[C@H](O)c3ccc(c(Cl)c3)Oc3cc2cc(c3O[C@@H]2O[C@H](CO)[C@@H](O)[C@H](O)[C@H]2O[C@H]2C[C@](C)(N)[C@H](O)[C@H](C)O2)Oc2ccc(cc2Cl)[C@H]1O` , give its reported MIC. 4
